Origin of the recorded values: the supplement of paper PMC3545927

- Target: furin, P09958;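 also: purified furin at 1:10 enzyme:substrate in 50 mM HEPES pH 7.5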
- Sequence (P09958 whole entry): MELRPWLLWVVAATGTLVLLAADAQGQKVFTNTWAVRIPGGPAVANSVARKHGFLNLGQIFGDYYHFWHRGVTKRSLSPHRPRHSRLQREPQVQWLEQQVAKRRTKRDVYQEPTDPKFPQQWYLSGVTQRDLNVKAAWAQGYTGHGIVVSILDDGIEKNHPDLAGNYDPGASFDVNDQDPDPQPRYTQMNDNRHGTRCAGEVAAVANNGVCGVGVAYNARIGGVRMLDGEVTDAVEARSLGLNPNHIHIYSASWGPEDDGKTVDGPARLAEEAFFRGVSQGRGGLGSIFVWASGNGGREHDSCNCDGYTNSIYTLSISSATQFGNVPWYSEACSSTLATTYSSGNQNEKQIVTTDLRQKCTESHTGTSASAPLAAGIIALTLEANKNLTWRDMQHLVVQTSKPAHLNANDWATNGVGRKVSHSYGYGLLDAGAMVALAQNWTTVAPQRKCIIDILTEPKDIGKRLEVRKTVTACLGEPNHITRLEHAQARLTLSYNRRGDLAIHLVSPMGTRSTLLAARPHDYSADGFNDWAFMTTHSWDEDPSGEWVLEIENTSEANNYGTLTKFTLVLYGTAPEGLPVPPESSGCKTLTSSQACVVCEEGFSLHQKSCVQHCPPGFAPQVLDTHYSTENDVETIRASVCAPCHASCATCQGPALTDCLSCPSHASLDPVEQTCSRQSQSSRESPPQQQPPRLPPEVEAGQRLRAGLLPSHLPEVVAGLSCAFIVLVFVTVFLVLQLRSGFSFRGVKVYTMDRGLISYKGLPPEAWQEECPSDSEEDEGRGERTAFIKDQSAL
- Test Method Notes: furin cleavage Z-score vs untreated control; higher = more cleavage, active = 3.5 or more, inactive = 1 or less, 8 variable residues between constant flanks
- Setup Conditions: 7.5 min
This is one part of the list. No count for the full screen is at hand.
Experimental Endpoint: furin cleavage Z-score

CAYSWGENDTAGNASASA [HC424]    -0.162 (inactive)
CALQRRWKRTAGNASASA [FS-685]    12.5 (active)

Next up:
Enquiry: Entry under review: CAGQARWKRPAGNASASA [FS-656] . Reported furin cleavage Z-score?
Return: 0.0361 (inactive)
